Origin of measurements: ChEMBL document CHEMBL4765491

# Experimental System: 5'-nucleotidase (Homo sapiens)
# Test Method Notes: Inhibition of CD73 in human SK-OV-3 cells incubated for 60 mins before addition of AMP and further incubated for 60 mins by colorimetric assay
# Format: cell-based
Quantity: IC50
Kindly format the answer as number then unit.

Per the record, O=P(O)(O)COC[C@H]1O[C@@H](n2ncc3c(NC4CCCC4)nc(Cl)nc32)[C@H](O)[C@@H]1O has IC50 of 0.55 nM

====

# Experimental System: 5'-nucleotidase (Homo sapiens, UniProt P21589)
# Sequence (P21589 whole entry): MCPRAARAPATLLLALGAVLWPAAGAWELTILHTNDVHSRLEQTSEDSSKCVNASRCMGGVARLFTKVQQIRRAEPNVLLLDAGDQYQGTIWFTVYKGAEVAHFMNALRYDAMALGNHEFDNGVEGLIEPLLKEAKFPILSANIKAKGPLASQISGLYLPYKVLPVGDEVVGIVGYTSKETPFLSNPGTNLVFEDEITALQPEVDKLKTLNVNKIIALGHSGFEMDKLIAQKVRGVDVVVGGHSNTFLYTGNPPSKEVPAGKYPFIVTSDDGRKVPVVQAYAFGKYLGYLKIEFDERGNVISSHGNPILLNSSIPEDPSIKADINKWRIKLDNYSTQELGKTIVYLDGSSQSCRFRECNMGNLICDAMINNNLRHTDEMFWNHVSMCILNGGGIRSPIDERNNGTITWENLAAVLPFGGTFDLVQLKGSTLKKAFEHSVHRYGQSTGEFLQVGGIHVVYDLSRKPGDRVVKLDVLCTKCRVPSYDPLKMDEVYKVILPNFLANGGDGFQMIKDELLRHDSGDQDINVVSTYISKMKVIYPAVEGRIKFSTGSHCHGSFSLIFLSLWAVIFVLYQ
# Test Method Notes: Inhibition of human CD73 expressed in CHO cells incubated for 60 mins before addition of AMP and further incubated for 60 mins by colorimetric assay
# Assay type: cell-based
Quantity: IC50 (nM)
The reply should contain only the number, in nM.

Per the record, Cn1cnnc1CNc1nc(Cl)nc2c1ncn2[C@@H]1O[C@H](COCP(=O)(O)O)[C@@H](O)[C@H]1O has IC50 of 3200

Per the record, O=P(O)(O)COC[C@H]1O[C@@H](n2cnc3c(NCc4ccccc4)nc(Cl)nc32)[C@H](O)[C@@H]1O has IC50 of 58

Per the record, O=P(O)(O)COC[C@H]1O[C@@H](n2cnc3c(NC4CC4)nc(Cl)nc32)[C@H](O)[C@@H]1O has IC50 of 588

Per the record, O=P(O)(O)COC[C@H]1O[C@@H](n2cnc3c(NCc4ccccc4Cl)nc(Cl)nc32)[C@H](O)[C@@H]1O has IC50 of 46

Per the record, O=P(O)(O)COC[C@H]1O[C@@H](n2cnc3c(NCCc4ccccc4)nc(Cl)nc32)[C@H](O)[C@@H]1O has IC50 of 105

Per the record, O=P(O)(O)COC[C@H]1O[C@@H](n2cnc3c(N4CCOCC4)nc(Cl)nc32)[C@H](O)[C@@H]1O has IC50 of 148

Per the record, CC(C)Nc1nc(Cl)nc2c1ncn2[C@@H]1O[C@H](COCP(=O)(O)O)[C@@H](O)[C@H]1O has IC50 of 192

Per the record, CN(Cc1ccccc1Cl)c1nc(Cl)nc2c1ncn2[C@@H]1O[C@H](COCP(=O)(O)O)[C@@H](O)[C@H]1O has IC50 of 46

Per the record, O=C(O)C(OC[C@H]1O[C@@H](n2cnc3c(NCc4ccccc4)nc(Cl)nc32)[C@H](O)[C@@H]1O)C(=O)O has IC50 of 1000

Per the record, O=C(O)C(OC[C@H]1O[C@@H](n2cnc3c(NCc4ccccc4)nc(Cl)nc32)[C@H](O)[C@@H]1O)P(=O)(O)O (stereo partly specified) has IC50 of 110

Per the record, O=P(O)(O)COC[C@H]1O[C@@H](n2cnc3c(NC4CCCC4)nc(-c4ccccc4)nc32)[C@H](O)[C@@H]1O has IC50 of 245

Per the record, O=P(O)(O)COC[C@H]1O[C@@H](n2cnc3c(NC4CCCC4)cc(Cl)nc32)[C@H](O)[C@@H]1O has IC50 of 33

Per the record, COCc1nc(NC2CCCC2)c2ncn([C@@H]3O[C@H](COCP(=O)(O)O)[C@@H](O)[C@H]3O)c2n1 has IC50 of 118

Per the record, Cc1ccccc1-c1nc(NC2CCCC2)c2ncn([C@@H]3O[C@H](COCP(=O)(O)O)[C@@H](O)[C@H]3O)c2n1 has IC50 of 3500

Per the record, O=P(O)(O)COC[C@H]1O[C@@H](n2cnc3c(N[C@@H]4CCOC4)nc(Cl)nc32)[C@H](O)[C@@H]1O has IC50 of 84
